System: B6C3F1 mice, Lewis lung carcinoma iv, survival T/C
assay-remarks: NCI In Vivo Anticancer Drug Screen. Data for tumor model Lewis Lung Carcinoma (intravenous) in B6C3F1 mice
setup-conditions: endpoint: median survival time; dose: 4.0 mg/kg/injection; schedule: Q01DX009 (ip); vehicle: saline; higher = longer survival
Toxic doses and inconclusive results are not listed.

| compound | T/C |
| --- | --- |
| Cc1c(N)nc(C(CC(N)=O)NCC(N)C(N)=O)nc1C(=O)NC(C(=O)NC(C)C(O)C(C)C(=O)NC(C(=O)NCCc1nc(-c2nc(C(=O)NCCCNCCCc3ccccn3)cs2)cs1)C(C)O)C(OC1OC(CO)C(O)C(O)C1OC1OC(CO)C(O)C(OC(N)=O)C1O)c1cnc[nH]1 (centres undefined) | 110 % of control |
| O=C1C(NCC(O)CO)=C(N2CC2)C(=O)C(NCC(O)CO)=C1N1CC1 (centres undefined) | 116 % of control |
| COc1cccc2c1C(=N)c1c(O)c3c(c(O)c1C2=O)C[C@@](O)(C(C)=O)C[C@@H]3OC1CC(N)C(O)C(C)O1 (some centres undefined) | 105 % of control |
| Nc1ccn(C2OC(CO)C(O)C2O)c(=O)n1 (centres undefined) | 100 % of control |

###

Tested on: B6C3F1 mice, Lewis lung carcinoma iv, survival T/C
assay-remarks: NCI In Vivo Anticancer Drug Screen. Data for tumor model Lewis Lung Carcinoma (intravenous) in B6C3F1 mice
setup-conditions: endpoint: median survival time; dose: 0.5 mg/kg/injection; schedule: Q01DX009 (ip); vehicle: water; higher = longer survival
Experimental: The antitumor activity of compounds was measured in mice bearing transplantable tumors. Survival or tumor size were measured and the results are expressed as the measurement made in the treated group (T) divided by the measurement made in the vehicle treated control group (C). The tumor model used in this assay is Lewis Lung Carcinoma (intravenous) in B6C3F1 mice
Inconclusive results and toxic doses are left out.
Catalogue of T/C values

| compound | T/C |
| --- | --- |
| CC1OC(OC2CC(O)(C(=O)CO)Cc3c(O)c4c(c(O)c32)C(=O)c2ccccc2C4=O)CC(N)C1O (centres undefined) | 120 % of control |
| C[n+]1c(-c2cccc(OCCOCCOc3cccc(-c4c5cc(N)ccc5c5ccc(N)cc5[n+]4C)c3)c2)c2cc(N)ccc2c2ccc(N)cc21 | 105 % of control |
| O=C1c2c(O)ccc(O)c2C(=O)c2c(NCCNCCO)ccc(NCCNCCO)c21 | 110 % of control |
| CCOC(OCC)C(=O)OCC(=O)[C@]1(O)Cc2c(O)c3c(c(O)c2[C@@H](OC2CC(N)C(O)C(C)O2)C1)C(=O)c1c(OC)cccc1C3=O (some centres undefined) | 116 % of control |

###

System: B6C3F1 mice, Lewis lung carcinoma iv, survival T/C
assay-remarks: NCI In Vivo Anticancer Drug Screen. Data for tumor model Lewis Lung Carcinoma (intravenous) in B6C3F1 mice
setup-conditions: endpoint: median survival time; dose: 800.0 mg/kg/injection; schedule: Q01DX009 (ip); vehicle: Klucel (hydroxypropylcellulose) (HPC); higher = longer survival
Toxic doses and inconclusive results are not listed. Residues, ends and D or L forms follow the SMILES beside them. *: point of attachment. Trt = c1ccc(C(c2ccccc2)(c2ccccc2)*)cc1; Cbz = O=C(OCc1ccccc1)*; Bn = c1ccc(C*)cc1; βAla = NCCC(=O)O
Catalogue of T/C values

| compound | T/C |
| --- | --- |
| Cc1ccc(C2NC(=S)N3C(c4ccc(C)cc4)NC(=S)N23)cc1 (centres undefined) | 109 % of control |
| CN(C)c1ccc2c(SCC(=O)OCC(=O)[C@@]3(O)CC[C@H]4[C@@H]5CCC6=CC(=O)C=C[C@]6(C)[C@H]5C(=O)C[C@@]43C)c3ccc(N(C)C)cc3nc2c1 | 101 % of control |
| COC(=O)C(CSC(c1ccccc1)(c1ccccc1)c1ccccc1)NC(=O)C(CSCc1ccccc1)NC(=O)CCNC(=O)OCc1ccccc1 (centres undefined) ({Cbz-βAla}-Cys(Bn)-Cys(Trt)-OMe; configuration not given here) | 98 % of control |
| CC1C=NNC1=O (centres undefined) | 118 % of control |
